Tested on: Noggin (protein binding on small-molecule microarray)
Protocol details: Noggin binders on small-molecule microarray, primary screen, biochemical, 635/667 nm fluorescence (AID 1095);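 note: score merges 667 nm feature fluorescence with signal to noise over triplicate slides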
Assay context: 635 nm fluorescence, higher = more signal
Each record here notes measured composite z-score.
Reply: number alone, nothing else.

Field: example entries. Status: answers known.
| Molecule | composite z-score |
| --- | --- |
| COc1ccc(CCNC(=O)[C@@]2(C)c3ccccc3C(=O)N(C(C)C)[C@H]2c2ccc(CO)cc2)cc1 | 0.456 |
| COCCOC(=O)N1C(=O)[C@@]2(c3cc(C#CC4(O)CCCCCC4)ccc31)[C@H](c1ccc(OCCO)cc1)N1[C@H](c3ccccc3)[C@H](c3ccccc3)OC(=O)[C@H]1[C@@H]2C(=O)N1CCN(c2ncccn2)CC1 | 1.67 |
| C=CCNC(=O)[C@@H]1[C@H]2C(=O)O[C@H](c3ccccc3)[C@H](c3ccccc3)N2[C@H](c2ccc(O)cc2)[C@@]12C(=O)N(C(=O)OCCOC)c1ccc(C#CCNC(N)=O)cc12 | 1.12 |
| CN1C=C(C(=O)OCCS(C)(=O)=O)C(C(=O)OCCS(C)(=O)=O)=CC(c2ccc(CO)cc2)=CC1C1CC1 (stereo not drawn) | 0.425 |
| COC(=O)[C@@]1(Cc2ccccc2)[C@H]2c3cc(C(=O)N4CCCC4)n(Cc4ccc(S(C)(=O)=O)cc4)c3C[C@H]2CN1C(=O)c1ccccc1 | 0.0689 |

We now examine a further molecule.
Value of measured composite z-score for the entry `CC(C)NC(=O)[C@@H]1c2ccccc2C(=O)N(C2Cc3ccccc3C2)[C@H]1c1ccc(CO)cc1` : 0.0941

###

Protocol details: basal RPMI8226 viability, no added stimulus, profiling panel, cell-based, calcein-AM fluorescence, 48 h, PK04 Diversity Set (AID 1166);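 note: cells grown under basal conditions without added stimulus; test concentration not given here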
Assay context: RPMI8226 myeloma viability, higher = more signal
Listed compounds paired with reported z-score
In your answer, state the number alone without any accompanying words.

// worked examples, z-score included
| Compound | Observed |
| --- | --- |
| COc1cc(NN2C(C(O)c3ccco3)C=CC3C(=O)N(c4ccccc4)C(=O)C32)cc(OC)c1OC (stereo unspecified) | -0.307 |
| C=C(COC)/C(=C/C[C@@H](OC(=O)c1ccncc1)c1ccc(CO)o1)c1cc(C(=O)OC)ccc1OC | -0.27 |
| O=C1O[C@@H](c2ccccc2)[C@@H](c2ccccc2)N2[C@@H](c3ccccc3OCCO)[C@]3(C(=O)Nc4ccc(C#CC5=CCCCC5)cc43)[C@@H](C(=O)N3CCCCCCC3)[C@H]12 | -2.79 |
| CN(C)CCCCCCNC(=O)[C@H]1C[C@H]2C(=O)N[C@@H](CCCCN)C(=O)N2[C@H]1c1cccc(OCCO)c1 | -0.497 |
| COCCOC(=O)N1C(=O)[C@@]2(c3cc(C#Cc4ccc(OC)cc4)ccc31)[C@H](c1ccccc1OCCO)N1[C@H](c3ccccc3)[C@H](c3ccccc3)OC(=O)[C@H]1[C@@H]2C(=O)NC[C@H](O)c1ccccc1 | -2.23 |
| C=CCC(OC(C)=O)[C@@H]1[C@@H](N(Cc2ccc(-c3cccc(C(F)(F)F)c3)o2)C(=O)c2ccc(C)cc2)c2cc(OCCCO)ccc2N1C(=O)Cc1ccc2ccccc2c1 (stereo partly specified) | 0.707 |
| C=CCN1C(=O)[C@]2(O[C@H](CCn3cc([C@H](O)c4ccccc4)nn3)[C@@H]([Si](C)(C)c3ccc(OC)cc3)[C@@H]2C)c2ccccc21 | -4.3 |
| C[C@H]1NC(=O)[C@@]23C(=O)N[C@@H](Cc4ccccc4)C2[C@H](C)[C@@]2(C)O[C@H]2C3/C=C/C/C=C\CNC(=O)[C@@H]2CCCN2C1=O (stereo partly specified) | 0.727 |
| COCCOC(=O)N1C(=O)[C@@]2(c3cc(C#CC4(O)CCCCCC4)ccc31)[C@H](c1ccc(OCCO)cc1)N1[C@H](c3ccccc3)[C@H](c3ccccc3)OC(=O)[C@H]1[C@@H]2C(=O)N1CCN(c2ncccn2)CC1 | 0.182 |
| NCCCCCNC(=O)[C@@H]1C[C@@H]2C(=O)N[C@@H](Cc3ccccc3)C(=O)N2[C@@H]1c1ccc(O)cc1 | -0.0144 |

Turning now to a further compound:
z-score measured on `O=C1C[C@@](C(=O)NCCN2CCOCC2)(c2ccc([N+](=O)[O-])cc2)[C@@H](c2ccc(CO)cc2)N1CC12CC3CC(CC(C3)C1)C2` = -4.23

###

Assay system: Torsin-1A (Homo sapiens)
Protocol details: small-molecule binders of mutant TOR1A in lysate, primary screen, cell lysate, small-molecule microarray, COS7 lysate, 635/667 nm fluorescence (AID 1150);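 note: score pools 667 nm emission and signal to noise measuring lysate protein binding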
Assay context: COS7 hTOR1A mutant lysate, 635 nm fluorescence, higher = more signal
Outcome measure: composite z-score

Recorded results for 3 compounds are shown here.
| Compound | Observed |
| --- | --- |
| CC1CC/C=C\[C@H]2OC34C=CCN(C(C)(C)C)C(=O)[C@H]3N(CCO)C(=O)[C@@H]4C2C(=O)O1 (some centres not stated) | -2.49 |
| COC(=O)[C@@]1(Cc2ccccc2)[C@H]2c3cc(C(=O)N(C)C)n(Cc4ccsc4Br)c3C[C@H]2CN1C(=O)c1ccccc1 | 0.508 |
| O=C1C[C@]2(c3ccc([N+](=O)[O-])cc3)C(=O)N(CC(F)(F)F)c3cc(CO)ccc3[C@H]2N1C1CCCCC1 | -0.611 |

Given item C=CCC(OC(C)=O)[C@@H]1[C@@H](N(Cc2ccc(-c3ccccc3)cc2)C(=O)c2ccc(-c3ccccc3)cc2)c2cc(OCCCO)ccc2N1C(=O)Cc1ccc2ccccc2c1 (some centres not stated) , the value recorded as its composite z-score is 0.42

Field composite z-score (entry `CCOC(=O)C[C@H]1[C@H](OC(=O)c2ccc(-c3ccccc3)cc2)[C@@H](NC(=O)Cc2ccc(OC)cc2)c2cc(OCCCO)ccc2N1C(=O)c1ccccc1` ) reads 0.023

Sample `CCCC[C@H]1OB(O)C[C@H]2C1=C(COC)C[C@H]1C(=O)N(C)C(=O)[C@H]12` ; composite z-score observed: 0.301

composite z-score for Cc1ccccc1C(O)C1C=CC2C(=O)N(c3ccccc3)C(=O)C2N1Nc1ccc(C(C)C)cc1 (configuration not stated) is 0.62

###

Tested on: Fibrinogen (Alexa647-labelled)
Protocol details: fibrinogen binders on compound microarrays, profiling panel, artefact control for SMM control-protein annotation, biochemical, small-molecule microarray, 635/667 nm fluorescence (AID 1131);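 note: z-score merges 667 nm fluorescence with per-spot signal-to-noise over triplicate slides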
Assay context: fibrinogen-A647 binding fluorescence, higher = more signal
composite z-score by entry:
Just the number.

Guide cases for composite z-score, answers given:
| Compound | Observed |
| --- | --- |
| C=CCN1C(=O)[C@@]2(Cc3ccccc31)N=C(c1ccc(OCCCO)cc1)O[C@H]2c1ccccc1 | 0.039 |
| NC(=O)NCC#Cc1ccc2c(c1)[C@]1(C(=O)N2)[C@H](C(=O)Nc2nc3ccccc3s2)[C@H]2C(=O)O[C@H](c3ccccc3)[C@H](c3ccccc3)N2[C@@H]1c1ccccc1OCCO | 0.764 |
| Oc1ccc2cc[n+](Cc3sc4ccccc4c3Cl)cc2c1 | -0.462 |
| C=CCNC(=O)[C@@H]1[C@H]2C(=O)O[C@H](c3ccccc3)[C@H](c3ccccc3)N2[C@H](c2ccc(OCCO)cc2)[C@@]12C(=O)Nc1ccc(C#CCC(C(=O)OC)C(=O)OC)cc12 | 0.641 |
| C=CCC(OC(C)=O)[C@@H]1[C@@H](N(Cc2ccc(-c3ccccc3)cc2)C(=O)Cc2ccc(OC)cc2)c2cc(OCCCO)ccc2N1C(=O)Cc1ccc2ccccc2c1 (some centres not stated) | 0.389 |
| CC(C)N1C(=O)C[C@@](C(=O)NCC(F)(F)F)(c2ccc([N+](=O)[O-])cc2)[C@H]1c1ccc(CO)cc1 | 0.0938 |

Shift focus to the following entry.
Data point: `COc1ccc([Si](C)(C)[C@H]2[C@H](CC(=O)N3Cc4ccccc4C[C@H]3CO)O[C@@]3(C(=O)N(Cc4cccc(N5CCC5=O)c4)c4ccccc43)[C@@H]2C)cc1` ; composite z-score = 0.135

###

Protocol details: small-molecule binders of probe aLefty1, primary screen, biochemical, small-molecule microarray, 635/667 nm fluorescence (AID 1153);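 note: score merges spot fluorescence with signal-to-noise ratio from the scanned slide images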
Assay context: higher = more signal
Outcome measure: composite z-score

Study these solved cases before continuing.
| Smiles data | composite z-score |
| --- | --- |
| C=CC(=C)[C@H]1Oc2ccccc2S(=O)(=O)N2CCC[C@@H]12 | 0.131 |
| C=CC[C@]1(C(=O)NCc2ccccc2)N=C(c2ccc(OCCCO)cc2)O[C@H]1c1ccccc1N=[N+]=[N-] | 0.222 |
| COc1cc2c(cc1OC)CN(C(=O)[C@@H]1[C@H]3C(=O)O[C@H](c4ccccc4)[C@H](c4ccccc4)N3[C@H](c3ccccc3OCCO)[C@@]13C(=O)Nc1ccc(C#CCCO)cc13)CC2 | 0.751 |

Let us move to another entry and its composite z-score.
Value of composite z-score reported for the molecule `COC(=O)[C@@]1(Cc2ccccc2)[C@H]2c3cc(C(=O)N4CCCC4)n(Cc4ccc(S(C)(=O)=O)cc4)c3C[C@H]2CN1C(=O)c1ccccc1` is 0.198
